Each recorded value in this set is attributed to the DeepSol protein solubility set.

measurementDescription: soluble on expression in E. coli; label from the status in PepcDB or PDB records
assayReadout: soluble on expression in E. coli

Illustrative cases are given below, each with its answer.
{"inputSequence": "MITDEHIELFLAQAHRYGDAKLMLCSSGNLSWRIGEEALISGTGSWVPTLAKEKVSICNIASGTPTNGVKPSMESTFHLGVLRERPDVNVVLHFQSEYATAISCMKNKPTNFNVTAEIPCHVGSEIPVIPYYRPGSPELAKAVVEAMLKHNSVLLTNHGQVVCGKDFDQVYERATFFEMACRIIVQSGGDYSVLTPEEIEDLEIYVLGKKTK", "dataValue": "soluble"}
{"inputSequence": "MILKPIGVVKSPFKTQNDAPRQGRFSDAVSEIAIFDEYADGLHKIENLRHIIVLYWMDKASRDKLRVVPPGETEERGVFTTRSPSRPNPIGLCVVEILEVERNRLKVRWLDALDGSPVIDIKKYSPEIDCVNQLEGQQP", "dataValue": "not soluble"}
{"inputSequence": "MGSDKIHHHHHHMDFIEVYPNAIPDDLCDRLILAFEKHSGVVDGQTGNGVDLEKKISRDLTLDNFTDLQPLKNELLSYTLKGTADYFSQYAMALMGAVAVSVSDEQGQAVTLTPSNFERLGKPRAEALVKYLYRSGSINIQKYQKNKGGYPHWHSEQFPQLSHNEALHRVVLYMFYLNDVEEGGETEFYYQQRKISPKKGTMVIAPAGFTHSHRGNMPISNDKYIATSWVMFNRAEQLYAVYA", "dataValue": "not soluble"}
{"inputSequence": "SMPAYACQRPSPLTHHNTLLSEALETLAEAAGFEANEGRLLSFSRAASVLKSLPCPVASLSQLHGLPYFGEHSTRVIQELLEHGTCEEVKQVRCSERYQTMKLFTQVFGVGVKTANRWYQEGLRTLDELREQPQRLTQQQKAGLQYYQDLSTPVRRADAEALQQLIEAAVRQTLPGATVTLTGGFRRGKLQGHDVDFLITHPEEGQEVGLLPKVMSCLQSQGLVLYHQYHRSHLADSAHNLRQRSSTMDVFERSFCILGLPQPQQAALAGALPPCPTWKAVRVDLVVTPSSQFPFALLGWTGSQFFERELRRFSRQEKGLWLNSHGLFDPEQKRVFHATSEEDVFRLLGLKYLPPEQRNA", "dataValue": "soluble"}
{"inputSequence": "MAHHHHHHMLRIGICHFSRQEPQVIGTSVPSFRHFPYRAQDVLHLYRDFLRLIHQHPPQERADLLFRLHNEFYRRRHLTSPKMITGAIKRGEGILNVQRSMLESKTLRARGVSSREQGAQNVDGLWDQLQMLSGHVLPGLRNFRPSRNVLKGSYTQQATTQAVYSRRRL", "dataValue": "not soluble"}

Task: Could you tell me which soluble on expression in E. coli is on file for MLTLTAGKKAAMDRLSTQEGIISALAIDQRGALKKMIKALDVEPTDAQIETFKELVSKELTPYASAILLDPEYGLPAAKARDTEAGLLLAYEKTGYDATTPGRLPDLLADWSVLRLKEEGADAIKFLLYYDVDEDPEINHQKHVFIERLGSECAEEDLPFYLELVSYDAQIADATSLEYAKVKPHKVNEMMKEFSKPQYKVDVLKVEVPVNMNFVEGFAPAETAYTKEEAANYFLEQSQATDLPFIFLSAGVSTELFQETLRFAKEAGSTFNGVLCGRATWKNGVKPFVEAGETAACDWLKTEGRENIESLNEVIAATASSWHAKVQVNEG ?
Result: not soluble

Task: Try this sequence next: MCLIVFAWQPGHALPLLVAANRDEFYARPSLPLAAWEDAEGVFAGRDLEAGGTWLGLGPAGRFAALTNVRDPSQALGKRSRGELVADFLRGGGNPADYLAQVAGRAADYSGFNLLIGDRHQLWHYNPRVGPPRLLPAGIYGLSNAALDTPWPKLLKARAALAERLAEPHPQALLELLADAAPAADGQLPDTGVGLATERLLSSVFIASPSYGTRASSVVRVHADGTREMIERSFGPSGARLGEVSLVLPPGLEHHHHHH
Result: not soluble

Task: Try this sequence next: MNIKEKIVVLRNTEDGSFLKSFKNKKDVLAYNVELTDSIQLASFLPEEAYNIQKEKIDNLAETLGCDVVVIEASYDLKFVDGEDVPELTKEQKVKSMVNGMFEQVFGGE
Result: not soluble

Task: Try this sequence next: MSLSFLKHVQDCNTHDLSNFVRFVIEGRRVGWVRKALAQRLKAHGRVFDVTRDAVLLSASLRTPQSRTRAVADVVDRLADEGVVPAPRGELYRVNQSWGEPTLMLLDRAVVPTFGVRAYGVHLNGYVGAGADLHLWIGRRSPDKSVAPGKLDNMVAGGQPADLSLRQNLIKECAEEADLPEALARQAIPVGAITYCMESPAGIKPDTLFLYDLALPEDFRPHNTDGEMADFMLWPAAKVVEAVRTTEAFKFNVNLTVIDFAIRHGLIDPDNEPDYQEILAGLRGRPRERAASEGHHHHHH
Result: soluble

Task: Try this sequence next: GSSIFDIYVVTADYLPLGAEQDAITLREGQYVEVLDAAHPLRWLVRTKPTKSSPSRQGWVSPAYLDRRLKL
Result: soluble

Task: Try this sequence next: MGSDKIHHHHHHMSDDLGSELQLLYLFVHLVNAGSFSQAAKELDMPIATVSRKLAKLEEKLDKQLFMRSTRKLRLTEEGLALFQRYQSVIAQFDELSGVGSDKPEGTLRIAAPISIISIIFIRALNEFGRLYPDIRLHISQSNELVDLIDKGIDVAIVGGAQPDSSWVSSTLGELDYCLFATPEYLAQAPKLTHPNDLEAHQLIKVWPLFNWHLKHPNGESFYFNGPTKLTLTDLHGAIESALDHGGILYGPELFVKQQIKEDRLKVLLPEWVGEQRRISILYHQRSQQPLKVRVFIEFMQSKAPELFSMA
Result: not soluble

Task: Try this sequence next: MRIRLFAFCLLLGGCQSQLPPLPDWQSPEGRDDPQTGRIVELRSGVTLSPQQLVARLAAAPRVIVGEKHDNPDHHAVELWLAQALGEYRAQGSLLLEMLDPGQQPRVDAVRAQLGNGKPVANLEEALDWQKGWDWTQYGPLVSWAVAQPAPLLAANLQRSEIMRIYRERPPLPGTASRRDSVRLPLLAQIRESHCGMLPDDQLPAMLAVQQQRDRRMAERLRDAPRPAMLVAGSFHARRDLGVPVHLRDLGAEKGTQVLMLVEAGQAVTTREADYAWYTPAQPDKDYCAEMKKARLEHHHHHH
Result: not soluble
